Assay: Size exclusion chromatography (SEC), percent monomer
Type: physicochemical
Settings: Table 19, after protein A purification
The entries below are paired with their reported SEC % Monomer.

molecule | SEC % Monomer, %
F6 aks-rep: humanized anti-CD138 antibody; VH SEQ ID NO:89, VL SEQ ID NO:41 (antibody, V domains shown, Humanized Heavy chain variable region; Humanized Light chain variable region) VH: QVQLVQSGAEVVKPGASVKLSCKASGYTFTSYYLYWVKKAPGQGLDWIGEIYPRSGGTNYAEKFQGRVTLTADTSTSTAYLELSSLTSEDTAVYYCTRSLLYWGQGTTLTVSS VL: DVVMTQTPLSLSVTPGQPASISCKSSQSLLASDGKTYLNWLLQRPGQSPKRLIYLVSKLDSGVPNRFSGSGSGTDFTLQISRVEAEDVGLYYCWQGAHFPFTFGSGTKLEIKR | 95.2
F6 f1ks-rep: humanized anti-CD138 antibody; VH SEQ ID NO:91, VL SEQ ID NO:41 (antibody, V domains shown, Humanized Heavy chain variable region; Humanized Light chain variable region) VH: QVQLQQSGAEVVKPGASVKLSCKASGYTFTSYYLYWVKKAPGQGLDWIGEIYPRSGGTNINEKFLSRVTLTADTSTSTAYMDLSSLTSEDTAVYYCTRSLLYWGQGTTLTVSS VL: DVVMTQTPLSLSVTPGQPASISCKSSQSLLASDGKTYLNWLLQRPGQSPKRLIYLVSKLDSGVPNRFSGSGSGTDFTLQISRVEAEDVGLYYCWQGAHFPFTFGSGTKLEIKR | 95.6
F6 f2ks-rep: humanized anti-CD138 antibody; VH SEQ ID NO:92, VL SEQ ID NO:41 (antibody, V domains shown, Humanized Heavy chain variable region; Humanized Light chain variable region) VH: QVQLQQSGAEVVKPGASVKLSCKASGYTFTSYYLYWVKKAPGQGLDWIGEIYPRSGGTNINEKFLSRVTITADESTSTVYMQLSSLTSEDSAVYYCTRSLLYWGQGTTLTVSS VL: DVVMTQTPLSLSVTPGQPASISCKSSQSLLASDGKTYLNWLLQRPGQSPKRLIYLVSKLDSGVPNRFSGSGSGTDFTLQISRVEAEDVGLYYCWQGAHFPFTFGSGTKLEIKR | 77.6
F6 f2kf-rep: humanized anti-CD138 antibody; VH SEQ ID NO:92, VL SEQ ID NO:43 (antibody, V domains shown, Humanized Heavy chain variable region; Humanized Light chain variable region) VH: QVQLQQSGAEVVKPGASVKLSCKASGYTFTSYYLYWVKKAPGQGLDWIGEIYPRSGGTNINEKFLSRVTITADESTSTVYMQLSSLTSEDSAVYYCTRSLLYWGQGTTLTVSS VL: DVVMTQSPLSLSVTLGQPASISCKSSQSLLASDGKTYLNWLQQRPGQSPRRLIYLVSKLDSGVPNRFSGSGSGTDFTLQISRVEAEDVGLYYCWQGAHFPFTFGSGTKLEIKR | 95.1
F6 ckf-rep: humanized anti-CD138 antibody; VH SEQ ID NO:90, VL SEQ ID NO:43 (antibody, V domains shown, Humanized Heavy chain variable region; Humanized Light chain variable region) VH: QVQLVQSGAEVVKPGASVKLSCKASGYTFTSYYLYWVKKAPGQGLDWIGEIYPRSGGTNINEKFLSRVTLTADTSTSTAYLELSSLTSEDTAVYYCTRSLLYWGQGTTLTVSS VL: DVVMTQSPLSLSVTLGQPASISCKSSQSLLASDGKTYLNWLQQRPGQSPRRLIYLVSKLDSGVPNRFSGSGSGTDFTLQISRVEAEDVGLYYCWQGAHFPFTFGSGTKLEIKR | 95.3
F6 cka-rep: humanized anti-CD138 antibody; VH SEQ ID NO:90, VL SEQ ID NO:42 (antibody, V domains shown, Humanized Heavy chain variable region; Humanized Light chain variable region) VH: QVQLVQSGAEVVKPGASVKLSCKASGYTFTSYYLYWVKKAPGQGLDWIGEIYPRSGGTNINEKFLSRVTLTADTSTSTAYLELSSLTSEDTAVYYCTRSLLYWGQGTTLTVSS VL: DVVMTQTPLSLSVTPGQPASISCKSSQSLLASDGKTYLNWLLQRPGQSPKRLIYLVSKLDSGVPNRFSGSGSGTDFTLQISRVEAEDVGLYYCMQGAHFPFTFGGGTKVEIKR | 88.8
F6 f1ka-rep: humanized anti-CD138 antibody; VH SEQ ID NO:91, VL SEQ ID NO:42 (antibody, V domains shown, Humanized Heavy chain variable region; Humanized Light chain variable region) VH: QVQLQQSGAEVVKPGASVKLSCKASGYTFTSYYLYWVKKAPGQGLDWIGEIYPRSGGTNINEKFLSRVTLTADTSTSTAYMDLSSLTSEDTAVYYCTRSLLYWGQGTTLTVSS VL: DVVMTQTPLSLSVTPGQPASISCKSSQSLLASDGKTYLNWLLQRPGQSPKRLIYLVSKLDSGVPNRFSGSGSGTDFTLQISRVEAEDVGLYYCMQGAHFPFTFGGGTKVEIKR | 92.9
